// potency estimated from few doses lookup, one value per entry
test system: PRKAG1; parameters: species or system human, MV4-11 + K-562 + COLO205 + SK-N-BE2 + OVCAR-8; conditions: read-out: apparent Kd; compound concentrations:100 nM and 1000 nM (sheet 'Samples'); n = 1
Dear colleague, please return just the value in nM, with no unit written.

Example cases with answers are listed next.
NS(=O)(=O)c1ccc(N/N=C2\C(=O)Nc3ccc(C(=O)NCCc4c[nH]cn4)cc32)cc1 [GW300660X]: 1480
O=C(O)C(F)(F)F.O=c1[nH]ccc2nc(N[C@@H]3CCNC3)nc(Nc3cc(Cl)cc(Cl)c3)c12 [GSK2188764A]: 799
CN1C[C@@H]2Cn3c(c(C4=C(c5cn(C)c6ccccc56)C(=O)NC4=O)c4ccccc43)C[C@H]2C1.Cl: 352
COc1ccccc1-c1ccc2c(NC(=O)C3CC3)n[nH]c2n1: 1190

Exam item: With PRKAG1 as the test system, provide measured potency estimated from few doses for this compound: CCn1c(-c2nonc2N)nc2c(C#CC(C)(C)O)nc(O[C@@H](CN)c3ccccc3)cc21.O=C(O)C(F)(F)F [GSK1007102B]
Marked response: 765

Exam item: With PRKAG1 as the test system, provide measured potency estimated from few doses for this compound: `O=C1NC(=O)C(N2CCc3ccccc32)=C1c1ccccc1Cl`
Marked response: 215

Exam item: With PRKAG1 as the test system, provide measured potency estimated from few doses for this compound: `CC(C)N1CCC(n2cnc(-c3ccc(F)cc3)c2-c2ccnc(N)n2)CC1`
Marked response: 884

Exam item: With PRKAG1 as the test system, provide measured potency estimated from few doses for this compound: `O=C(Nc1n[nH]c2nc(-c3ccc(O)cc3)c(Br)cc12)C1CC1`
Marked response: 1610

Exam item: With PRKAG1 as the test system, provide measured potency estimated from few doses for this compound: `CCn1c(=O)c(Oc2ccc(F)cc2F)cc2cnc(NC3CCOCC3)nc21`
Marked response: 128

====

test system: ACVR1B; set-up: species or system human, MV4-11 + K-562 + COLO205 + SK-N-BE2 + OVCAR-8; settings: read-out: apparent Kd; compound concentrations:100 nM and 1000 nM (sheet 'Samples'); n = 1
RECORDED ENDPOINT: potency estimated from few doses

COc1ccccc1-c1cc(/C=C2\C(=O)Nc3ncc(Br)cc32)cc(Br)c1O [GW442130X]: 646 nM

Exam item: Let me know recorded potency estimated from few doses for Cc1cccc(-c2nc(Nc3ccc4[nH]ncc4c3)c3ccccc3n2)n1 [GW857175X] , thanks.
Marked response: 89 nM

Exam item: Let me know recorded potency estimated from few doses for COc1cccc(-n2ncc3c(N/N=C/c4ccncc4)ncnc32)c1 [GW784752X] , thanks.
Marked response: 725 nM

Exam item: Let me know recorded potency estimated from few doses for Cc1cccc(-c2nc(Nc3ccncc3)c3sccc3n2)n1 [GW869641X] , thanks.
Marked response: 0.703 nM

Exam item: Let me know recorded potency estimated from few doses for Cc1cccc(-c2nc(Nc3ccncc3)c3ccccc3n2)n1 [GW855857X] , thanks.
Marked response: 0.502 nM

Exam item: Let me know recorded potency estimated from few doses for O=C(c1ccc(-c2cc(-c3c[nH]nc3-c3ccccn3)ccn2)cc1)N1CCOCC1 [GW812171X] , thanks.
Marked response: 119 nM
